# target entity: SARS-CoV-2 Main Protease (SARS-CoV-2)
pIC50: −log10 of the molar value.
In this section, each of the compounds is paired with its reported pIC50.
measurement type: pIC50

>>> reported("O=C(CCl)N1CCN(S(=O)(=O)c2ccsc2)[C@H](C(=O)N2CCN(c3ccccc3)CC2)C1 (stereo in doubt)")
5.70
>>> reported("O=C(CC1(C(=O)Nc2cncc3ccccc23)CCOc2ccc(Cl)cc21)N1CCN(CC(F)(F)CO)CC1 (stereo unspecified)")
5.14
>>> reported("CN1C(=O)CCc2cc(N(C(=O)c3cocn3)C(C(=O)NCCc3cccc(F)c3)c3cccnc3)ccc21 (stereo unspecified)")
4.20
>>> reported("O=C(Nc1cncc2ccccc12)C1CCN(Cc2cnc[nH]2)c2ccc(Cl)cc21 (stereo unspecified)")
5.95
>>> reported("CS(=O)(=O)c1ccc2c(N3CCC4(CN(S(=O)(=O)CC5(C#N)CC5)Cc5ccc(Cl)cc54)C3=O)cncc2c1 (stereo unspecified)")
6.99
>>> reported("O=C(Cc1cc(Cl)cc(Nc2cnc(Br)c(Cl)n2)c1)Nc1cncc2ccccc12")
5.71
>>> reported("O=C(Cc1cc(Cl)cc(Nc2ncccc2C(F)(F)F)c1)Nc1cncc2ccccc12")
5.71
>>> reported("Cc1cc(Br)c(Cl)cc1Nc1cc(Cl)cc(CC(=O)Nc2cncc3ccccc23)c1")
5.69
>>> reported("COc1cc2c(cc1OC)CN(c1cc(Cl)cc(CC(=O)Nc3cncc4ccccc34)c1)CC2")
5.78
>>> reported("CN(c1cc(Cl)cc(CC(=O)Nc2cncc3ccccc23)c1)[C@@H]1CCN(Cc2ccccc2)C1 (stereo in doubt)")
5.69
>>> reported("CCS(=O)(=O)Nc1ccc2cncc(NC(=O)Cc3cccc(Cl)c3)c2c1")
5.99
>>> reported("COc1ccc2ncc(NC(=O)Cc3cccc(Cl)c3)n2c1")
4.80
>>> reported("Cc1ccncc1NC(=O)Cc1cc(Cl)cc(NC2CCCC2O)c1 (stereo unspecified)")
4.71
>>> reported("COc1cc(Cl)nc(Nc2cc(Cl)cc(CC(=O)Nc3cncc4ccccc34)c2)n1")
6.30
>>> reported("C=CC(=O)N(c1ccc(C(C)(C)C)cc1)[C@@H](C(=O)NCCc1cccc(F)c1)c1cccnc1 (stereo in doubt)")
4.06
>>> reported("CN(C)c1ccc(N(Cc2cccc(Cl)c2)C(=O)Cn2nnc3ccccc32)cc1")
6.30
>>> reported("O=C(Nc1cncc2ccccc12)C1CCOc2c(OCc3ccncc3)cc(Cl)cc21 (stereo unspecified)")
5.46
>>> reported("CS(=O)(=O)N1CCc2ccc(Cl)cc2C1C(=O)Nc1cncc2ccccc12 (stereo unspecified)")
5.80
>>> reported("CCOC(=O)[C@H]1CCCN(c2cc(Cl)cc(CC(=O)Nc3cncc4ccccc34)c2)C1 (stereo in doubt)")
5.61
>>> reported("Cc1cc(F)cc(Br)c1Nc1cc(Cl)cc(CC(=O)Nc2cncc3ccccc23)c1")
5.70
>>> reported("CC(C)(C)c1ccc(N(C(=O)c2ncc[nH]2)C(C(=O)NCCc2cccc(F)c2)c2cccnc2)cc1 (stereo unspecified)")
5.28
>>> reported("CN(C)c1ccc(N(Cc2ccccc2)C(=O)Cn2nnc3ccccc32)cc1")
5.30
>>> reported("CC(C)Oc1ccc(N(C(=O)c2cocn2)C(C(=O)NCCc2cccc(F)c2)c2cccnc2)cc1 (stereo unspecified)")
6.22
